B1: Lysozyme C, P61626 (parent)
chain: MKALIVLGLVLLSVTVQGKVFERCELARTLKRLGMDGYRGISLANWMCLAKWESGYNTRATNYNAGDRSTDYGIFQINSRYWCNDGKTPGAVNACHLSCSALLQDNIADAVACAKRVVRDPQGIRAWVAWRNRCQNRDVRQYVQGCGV

- Variants of: B1
- MEASUREMENT_PARAMETERS: Homo sapiens; pH 3.02; Thermal; DSC; glycine 0.05 M; reversible: yes; structure 1LZ1; whole UniProt chain shown
OBSERVED_PROPERTY: Tm (°C)
Give just the number in °C; leave the unit off.

Here are 4 variants together with their reported answers.
V111A | 50.1
V20A | 47.3
V117A | 51
V118A | 52

Next:
Task: Form field: reported Tm of V143A
Output: 47.9
